src = patent US4588715A

Biological target: HMG-CoA reductase (Rattus norvegicus)
Construct: the microsomes are the source of the HMG-CoA reductase enzyme; from tissue; host or cells: liver microsomes, male Sprague-Dawley rats
Assay: Test A. In Vitro Microsomal Assay of HMG-CoA Reductase Inhibition
Format: biochemical
Settings: IC50, rat liver microsomes; saponified products M=Na, unsaponified products tested in DMA
Method: Test A. In Vitro Microsomal Assay of HMG-CoA Reductase Inhibition 200 μl. aliquots (1.08-1.50 mg./ml.) of rat liver microsomal suspensions, freshly prepared from male Sprague-Dawley rats (150-225 g. body weight), in Buffer A with 10 mmol. dithiothreitol are incubated with 10 μl. test substance dissolved in dimethylacetamide and assayed for HMG-CoA reductase activity as described by Ackerman et al., J. Lipid Res. 18,408-413 (1977). […]
The entries below come with measured IC50 values attached.
measure_name: IC50 (µM)

> print(dat)
                                   compound  measure.name  readout.units  value.measured
1  Cc1ccc(C)c([Si](C)(C)c2ccccc2)c1/C=C/[C@@H](O)C[C@@H](O)CC(=O)O (relative stereo)          IC50             µM               9
2  Cc1cc(C)c(/C=C/[C@@H](O)C[C@@H](O)CC(=O)O)c([Si](C)(C)c2ccccc2)c1 (relative stereo)          IC50             µM             6.9
3  Cc1cccc([Si](C)(C)c2ccccc2)c1/C=C/[C@@H]1C[C@@H](O)CC(=O)O1 (relative stereo)          IC50             µM            27.2
4  Cc1ccc(C)c([Si](C)(C)c2ccccc2)c1/C=C/[C@@H]1C[C@@H](O)CC(=O)O1 (relative stereo)          IC50             µM            24.4
5  Cc1cc(Cl)cc([Si](C)(C)c2ccccc2)c1/C=C/[C@@H]1C[C@@H](O)CC(=O)O1 (relative stereo)          IC50             µM            16.4
6  CCOC(=O)C[C@H](O)C[C@H](O)/C=C/c1c(C)ccc(C)c1[Si](C)(C)c1ccccc1 (relative stereo)          IC50             µM            28.1
7  CCOC(=O)C[C@H](O)C[C@H](O)/C=C/c1c(C)cc(C)cc1[Si](C)(C)c1ccccc1 (relative stereo)          IC50             µM            14.7
8  Cc1cccc([Si](C)(C)c2ccccc2)c1/C=C/[C@@H](O)C[C@@H](O)CC(=O)O (relative stereo)          IC50             µM             4.3
9  Cc1cccc([Si](C)(c2ccccc2)c2ccccc2)c1/C=C/[C@@H](O)C[C@@H](O)CC(=O)O (relative stereo)          IC50             µM            52.4

---

target: HMG-CoA reductase (Rattus norvegicus, UniProt P51639); construct: the microsomes are the source of the HMG-CoA reductase enzyme; from tissue; host or cells: liver microsomes, male Sprague-Dawley rats; assay: Test A. In Vitro Microsomal Assay of HMG-CoA Reductase Inhibition; assay type: biochemical; conditions: rat liver microsomes; saponified products M=Na, unsaponified products tested in DMA; read-out: IC50
Sequence (P51639 whole entry): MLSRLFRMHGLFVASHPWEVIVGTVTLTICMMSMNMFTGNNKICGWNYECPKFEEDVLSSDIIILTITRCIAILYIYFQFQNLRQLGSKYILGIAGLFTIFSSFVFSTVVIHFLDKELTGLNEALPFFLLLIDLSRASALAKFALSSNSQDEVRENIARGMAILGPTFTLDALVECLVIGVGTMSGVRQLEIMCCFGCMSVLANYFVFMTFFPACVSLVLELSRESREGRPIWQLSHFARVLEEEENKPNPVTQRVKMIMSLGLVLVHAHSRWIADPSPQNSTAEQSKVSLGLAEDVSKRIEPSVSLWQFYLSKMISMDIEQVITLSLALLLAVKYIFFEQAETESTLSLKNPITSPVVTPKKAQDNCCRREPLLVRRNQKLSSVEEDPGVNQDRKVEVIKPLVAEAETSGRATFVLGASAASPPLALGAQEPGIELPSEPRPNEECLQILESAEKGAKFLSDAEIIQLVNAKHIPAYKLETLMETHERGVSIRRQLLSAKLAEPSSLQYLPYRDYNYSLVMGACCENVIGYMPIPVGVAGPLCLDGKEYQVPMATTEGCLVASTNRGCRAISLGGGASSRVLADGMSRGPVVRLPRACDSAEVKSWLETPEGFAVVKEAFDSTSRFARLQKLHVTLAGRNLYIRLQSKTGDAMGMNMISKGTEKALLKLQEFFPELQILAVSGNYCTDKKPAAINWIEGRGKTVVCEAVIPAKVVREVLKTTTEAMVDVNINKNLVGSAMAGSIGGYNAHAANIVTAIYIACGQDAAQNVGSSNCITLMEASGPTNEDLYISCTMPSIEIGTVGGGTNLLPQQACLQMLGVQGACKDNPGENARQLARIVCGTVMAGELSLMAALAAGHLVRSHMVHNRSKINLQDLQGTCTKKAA
pIC50: −log10 of the molar value.
measure_name: pIC50

> print(dat)
                                   molecule  value.measured
1  CC[C@H](C)C(=O)O[C@H]1CCC=C2C=C[C@H](C)[C@H](CC[C@@H]3C[C@@H](O)CC(=O)O3)[C@H]21 [compactin, reference compound]            6.10
